# TESTED SYSTEM: hSERT (Homo sapiens, UniProt P31645)
# Construct: expressed in transfected cells; the general 96-well protocol names Cos-1
# Sequence (P31645 whole entry): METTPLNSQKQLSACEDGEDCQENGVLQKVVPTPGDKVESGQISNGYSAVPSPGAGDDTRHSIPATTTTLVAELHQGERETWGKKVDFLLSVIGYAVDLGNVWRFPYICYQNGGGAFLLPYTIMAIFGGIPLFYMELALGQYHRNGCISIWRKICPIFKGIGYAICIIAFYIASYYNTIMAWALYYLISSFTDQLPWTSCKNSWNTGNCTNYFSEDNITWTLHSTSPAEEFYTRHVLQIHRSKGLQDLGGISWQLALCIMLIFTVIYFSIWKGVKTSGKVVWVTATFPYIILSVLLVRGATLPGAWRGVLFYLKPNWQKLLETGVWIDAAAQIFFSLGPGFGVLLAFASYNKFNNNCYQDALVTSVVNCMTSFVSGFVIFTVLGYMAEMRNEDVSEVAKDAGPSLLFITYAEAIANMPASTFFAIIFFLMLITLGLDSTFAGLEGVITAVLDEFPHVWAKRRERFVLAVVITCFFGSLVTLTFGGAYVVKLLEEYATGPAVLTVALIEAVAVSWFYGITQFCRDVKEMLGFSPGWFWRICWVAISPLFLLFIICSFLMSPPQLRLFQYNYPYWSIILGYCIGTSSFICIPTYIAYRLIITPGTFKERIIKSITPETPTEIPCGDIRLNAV
# PROTOCOL DESCRIPTION: 5-HT uptake assay, 10 min incubation without preincubation
# Type: cell-based
# CONDITION SET: 75 nM [3H]-5-HT, no preincubation
ENDPOINT: 5-HT uptake (effect)

Completed entries (count: 10):
[[record]]
compound = "Cc1ccc(S(N)(=O)=O)cc1 [TS1]"
value_reported = "Increase"

[[record]]
compound = "COS(=O)(=O)c1ccc(C)cc1 [TS6]"
value_reported = "Increase"

[[record]]
compound = "Cc1ccc(S(=O)(=O)N(C)N=O)cc1 [TS13]"
value_reported = "Increase"

[[record]]
compound = "O=S(=O)(Cl)c1cccc2ccccc12 [1-NSC, 1-naphthalenesulfonyl chloride]"
value_reported = "Increase"

[[record]]
compound = "Cc1ccc(S(=O)(=O)n2ccnc2)cc1 [TS14]"
value_reported = "No effect"

[[record]]
compound = "CCOS(=O)(=O)c1cccc2ccccc12 [1-NSC react. EtOH, 1-Naphthalene sulfonic acid ethyl ester]"
value_reported = "Inhibition"

[[record]]
compound = "NCCc1ccc(S(=O)(=O)Cl)cc1 [PefaCI, 4-(2-Aminoethyl)benzenesulfonyle cloride]"
value_reported = "Increase"

[[record]]
compound = "O=[N+]([O-])c1cccc2ccccc12 [TS22]"
value_reported = "Inhibition"

[[record]]
compound = "O=S(=O)(Cl)Cc1ccccc1 [PMSC]"
value_reported = "Increase"

[[record]]
compound = "[C-]#[N+]CS(=O)(=O)c1ccc(C)cc1 [TS15]"
value_reported = "No effect"


Inquiry: I am curious: what 5-HT uptake (effect) value has been reported for Clc1cccc2ccccc12 [TS20] ?
Reply text: Inhibition

Inquiry: Form field: reported 5-HT uptake (effect) of O=S(=O)(Cl)c1ccccc1 [BSC, benzenesulfonyl chloride]
Reply text: Increase

---

# TESTED SYSTEM: hSERT (Homo sapiens)
# Construct: expressed in transfected cells; the general 96-well protocol names Cos-1
# PROTOCOL DESCRIPTION: Binding of [3H]-citalopram to membrane preparations
# CONDITION SET: 35 nM [3H]-citalopram, 60 min RT
ENDPOINT: Binding of [3H]-citalopram (Bmax)

[[record]]
molecule = "Cc1ccc(S(=O)(=O)n2ccnc2)cc1 [TS14]"
value_reported = "No effect"

[[record]]
molecule = "O=[N+]([O-])c1cccc2ccccc12 [TS22]"
value_reported = "No effect"

[[record]]
molecule = "COS(=O)(=O)c1ccc(C)cc1 [TS6]"
value_reported = "No effect"


---

# TESTED SYSTEM: hSERT (Homo sapiens)
# Construct: the general 96-well protocol names Cos-1
# PROTOCOL DESCRIPTION: 5-HT uptake assay with preincubation (whole cells)
# CONDITION SET: whole cell assay with preincubation (title 45 min, text 60 min), 75 nM [3H]-5-HT, 10 min
ENDPOINT: pIC50
A value of pIC50 is the negative decimal logarithm of a concentration given in moles per litre.

[[record]]
smiles_str = "O=C(O)c1ccc2ccccc2c1O"
endpoint = "pIC50"
value_reported = 3.56


Now let's try a different one.
Inquiry: Give the reported pIC50 for Nc1cccc2c(N)cccc12 (system: hSERT (Homo sapiens)).
Reply text: 3.37

---

# TESTED SYSTEM: hDAT (Homo sapiens, UniProt Q01959)
# Construct: expressed in transfected cells
# Sequence (Q01959 whole entry): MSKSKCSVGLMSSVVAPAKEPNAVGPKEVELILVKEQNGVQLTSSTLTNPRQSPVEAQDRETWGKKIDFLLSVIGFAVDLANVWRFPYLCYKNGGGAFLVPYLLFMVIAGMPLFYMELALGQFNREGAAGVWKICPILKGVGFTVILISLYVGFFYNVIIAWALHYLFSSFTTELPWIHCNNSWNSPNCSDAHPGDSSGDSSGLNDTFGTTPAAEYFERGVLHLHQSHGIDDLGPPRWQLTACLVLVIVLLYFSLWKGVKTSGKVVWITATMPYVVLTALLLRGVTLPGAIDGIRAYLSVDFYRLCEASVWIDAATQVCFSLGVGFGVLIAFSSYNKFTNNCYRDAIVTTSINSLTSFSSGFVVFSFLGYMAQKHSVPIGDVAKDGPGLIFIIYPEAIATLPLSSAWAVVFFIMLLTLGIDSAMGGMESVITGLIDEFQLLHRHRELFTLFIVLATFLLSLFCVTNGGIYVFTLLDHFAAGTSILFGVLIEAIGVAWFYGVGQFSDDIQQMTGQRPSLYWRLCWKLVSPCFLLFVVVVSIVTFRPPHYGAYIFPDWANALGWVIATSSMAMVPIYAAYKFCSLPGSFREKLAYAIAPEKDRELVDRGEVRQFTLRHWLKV
# PROTOCOL DESCRIPTION: Binding of [125I]-RTI-55 in whole cell assay, cells transfected with human DAT
# CONDITION SET: displacement of [125I]-RTI-55
In plain terms, low EC50, meaning strictly below 200 µM, gives met, and everything else gives not met.

[[record]]
smiles_str = "OB(O)c1ccccc1"
group_label = "not met"

[[record]]
smiles_str = "O=C(O)c1c(O)ccc2ccccc12"
group_label = "not met"

[[record]]
smiles_str = "Cc1ccc(S(=O)(=O)n2ccnc2)cc1"
group_label = "not met"

[[record]]
smiles_str = "CC(=O)c1ccccc1"
group_label = "not met"

[[record]]
smiles_str = "Nc1ccc(S(=O)(=O)O)c2ccccc12"
group_label = "not met"

[[record]]
smiles_str = "O=C(O)c1ccc2ccccc2c1O"
group_label = "met"


Attention now shifts to the item below.
Inquiry: Hi there! Is EC50 for Nc1c(O)cc(S(=O)(=O)O)c2ccccc12 below 200 µM, do you know?
Reply text: met

---

# TESTED SYSTEM: hSERT (Homo sapiens, UniProt P31645)
# Construct: expressed in transfected cells; the general 96-well protocol names Cos-1
# PROTOCOL DESCRIPTION: Binding of [125I]-RTI-55 in whole cell assay, hSERT
# CONDITION SET: displacement of [125I]-RTI-55
Reported EC50 by item:
Express your answer in µM, writing the number without its unit.

// below: answered compounds
[[record]]
smiles_str = "Cc1ccc(S(=O)(=O)n2ccnc2)cc1"
value_reported = 2310

[[record]]
smiles_str = "O=C(O)c1c(O)ccc2ccccc12"
value_reported = 510

[[record]]
smiles_str = "O=C(O)c1ccc2ccccc2c1O"
value_reported = 220

[[record]]
smiles_str = "Nc1ccc(S(=O)(=O)O)c2ccccc12"
value_reported = 269


Inquiry: Please give the measured EC50 for this compound: CCOS(=O)(=O)c1cccc2ccccc12
Reply text: 462

Inquiry: Look up EC50: Nc1c(O)cc(S(=O)(=O)O)c2ccccc12
Reply text: 1.1

---

The following molecules are shown together with reported pIC50 values.
# TESTED SYSTEM: hSERT (Homo sapiens)
# Construct: the general 96-well protocol names Cos-1
# PROTOCOL DESCRIPTION: 5-HT uptake assay with preincubation (whole cells)
# CONDITION SET: whole cell assay with preincubation (title 45 min, text 60 min), 75 nM [3H]-5-HT, 10 min
# pIC50 is unitless: minus log10 of the molar concentration; print number only

Solved cases (3 shown):
[[record]]
molecule = "O=[N+]([O-])c1cccc2ccccc12 [TS22]"
endpoint = "pIC50"
value_reported = 5.54

[[record]]
molecule = "Nc1c(O)cc(S(=O)(=O)O)c2ccccc12 [TS16]"
endpoint = "pIC50"
value_reported = 3.34

[[record]]
molecule = "CCOS(=O)(=O)c1cccc2ccccc12 [1-NSC react. EtOH, 1-Naphthalene sulfonic acid ethyl ester]"
endpoint = "pIC50"
value_reported = 3.96


Inquiry: Which pIC50 value belongs to Clc1cccc2ccccc12 [TS20] ?
Reply text: 3.43

Inquiry: Give its pIC50 value. Item: N#Cc1cccc2ccccc12 [TS21]
Reply text: 4.22

---

Consider the following compounds and their measured IC50 readings.
# TESTED SYSTEM: hSERT (Homo sapiens, UniProt P31645)
# Construct: the general 96-well protocol names Cos-1
# PROTOCOL DESCRIPTION: 5-HT uptake assay with preincubation (whole cells)
# CONDITION SET: whole cell assay with preincubation (title 45 min, text 60 min), 75 nM [3H]-5-HT, 10 min

Inquiry: Give its IC50 value. Item: O=C(O)c1c(O)ccc2ccccc12
Reply text: > 2000 µM

---

Quick list: pIC50 per entry.
# TESTED SYSTEM: hSERT (Homo sapiens)
# Construct: the general 96-well protocol names Cos-1
# PROTOCOL DESCRIPTION: 5-HT uptake assay with preincubation (whole cells)
# CONDITION SET: whole cell assay with preincubation (title 45 min, text 60 min), 75 nM [3H]-5-HT, 10 min
# Description: 7 μl Fugene-6 was mixed with 112 μl Dulbecco's modified Eagle's medium, and incubated at room temperature for 5 minutes. 4 μg of plasmid were added and the mixture was further incubated at least 15 minutes. […] The 96-well plate was washed with PBSCM to remove DMEM prior to the assay. […] The amount of accumulated [^3H]-5-HT was determined by solubilizing cells in scintillant (MicroScint 20) with direct counting of plates in a Packard TopCounter. Data was analyzed by GraphPad software. […]
Conceptually, pIC50 converts a concentration in mol/L into minus its log10.

// known answers, use as guide
[[record]]
smiles_str = "Nc1cccc2ccccc12"
endpoint = "pIC50"
value_reported = 3.34

[[record]]
smiles_str = "Cc1ccc2ccccc2c1[N+](=O)[O-]"
endpoint = "pIC50"
value_reported = 4.80


Continue with the compound presented below.
Inquiry: Consider the compound shown here: NC(=O)c1ccccc1 What is its recorded pIC50?
Reply text: 2.94

---

# TESTED SYSTEM: hSERT (Homo sapiens)
# Construct: expressed in transfected cells; the general 96-well protocol names Cos-1
# PROTOCOL DESCRIPTION: Binding assay on whole cells transfected with hSERT ([3H]-citalopram displacement)
# CONDITION SET: whole cell assay, 35 nM [3H]-citalopram, 60 min room temperature; table title: 45 min preincubation
pEC50: −log10 of the molar value.
Returns one of Yes or No; Yes when pEC50 is >= 3.

Would you please look over these solved cases?
[[record]]
compound = "O=[N+]([O-])c1ccc(F)c2ccccc12"
tested_system = "hSERT (Homo sapiens)"
group_label = "No"

[[record]]
compound = "O=C(O)c1c(O)ccc2ccccc12"
tested_system = "hSERT (Homo sapiens)"
group_label = "Yes"

[[record]]
compound = "NC(=O)c1ccccc1"
tested_system = "hSERT (Homo sapiens)"
group_label = "No"

[[record]]
compound = "Cc1ccc(S(=O)(=O)N(C)N=O)cc1"
tested_system = "hSERT (Homo sapiens)"
group_label = "No"

[[record]]
compound = "Clc1cccc2ccccc12"
tested_system = "hSERT (Homo sapiens)"
group_label = "No"

[[record]]
compound = "CN(C)c1cccc2c(S(=O)(=O)Cl)cccc12"
tested_system = "hSERT (Homo sapiens)"
group_label = "No"

[[record]]
compound = "O=P(O)(O)c1ccccc1"
tested_system = "hSERT (Homo sapiens)"
group_label = "No"

[[record]]
compound = "Nc1ccc(S(=O)(=O)O)c2ccccc12"
tested_system = "hSERT (Homo sapiens)"
group_label = "Yes"

[[record]]
compound = "[C-]#[N+]CS(=O)(=O)c1ccc(C)cc1"
tested_system = "hSERT (Homo sapiens)"
group_label = "No"

[[record]]
compound = "O=C(O)c1ccc2ccccc2c1O"
tested_system = "hSERT (Homo sapiens)"
group_label = "Yes"


Inquiry: Given Cc1ccc(S(=O)(=O)n2ccnc2)cc1 , state whether its pEC50 is at least 3.
Reply text: No

Inquiry: State whether the measured pEC50 reaches 3, counting equality as reaching it, for Nc1c(O)cc(S(=O)(=O)O)c2ccccc12
Reply text: Yes

Inquiry: Reported pEC50 at or above 3? O=[N+]([O-])c1cccc2ccccc12
Reply text: No

Inquiry: pEC50 >= 3 for N#Cc1cccc2ccccc12 ?
Reply text: No

Inquiry: Check if pEC50 >= 3 (inclusive). Item: CCOS(=O)(=O)c1cccc2ccccc12
Reply text: Yes

Inquiry: Check if pEC50 >= 3 (inclusive). Item: COS(=O)(=O)c1ccc(C)cc1
Reply text: No

Inquiry: Decide: is the reported value of pEC50 for NCCc1ccc(S(=O)(=O)Cl)cc1 [PefaCI, 4-(2-Aminoethyl)benzenesulfonyle cloride] equal to or greater than 3?
Reply text: No

Inquiry: Threshold query (pEC50 >= 3) on O=S(=O)(c1ccccc1)c1ccccc1
Reply text: No

Inquiry: hey, is pEC50 for this one >= 3? OB(O)c1ccccc1
Reply text: No

Inquiry: Is the recorded value of pEC50 equal to or greater than 3 for this compound? Cc1ccc(S(N)(=O)=O)cc1
Reply text: No
